tested on: TRPC4 beta (transient receptor potential cation channel C4), mouse; test: activators of mouse TRPC4 channel, confirmation, cell-based, Fluo4 calcium, HEK293 TRPC4beta/mu-opioid, duplicates, 10 µM (AID 2426); conditions: Fluo4 calcium fluorescence, at 10 µM
Activity calls are given as the source filed them.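 Rule for the calls: active = fluorescence ratio normalized to control raised more than 50% in primary screen plus both repeat runs; inactive = the rest.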
Tick one outcome: class 1 for active, class 0 for inactive

Use the examples below as a reference point.
MOLECULE: O=C(NC(=S)NNC(=O)c1ccco1)c1ccc(Br)cc1
LABEL: class 1
--
MOLECULE: O=S(=O)(c1ccccc1)c1nnn2c1nc(NC1CCN(Cc3ccccc3)CC1)c1cc(Cl)ccc12
LABEL: class 1
--
MOLECULE: CC(NCc1cc(Br)ccc1OCC(=O)NCc1ccccc1)c1ccccc1 (stereo unspecified)
LABEL: class 0
--
MOLECULE: O=C(CCC1CCCC1)c1c(O)c2ccccc2oc1=O
LABEL: class 1
--
MOLECULE: c1ccc2c(c1)CCN(c1ncnc3c1[nH]c1ccccc13)C2
LABEL: class 0

We now examine a further molecule.
Per the assay record, what outcome was assigned to CN(C)C(CNC(=O)c1ccc2c(c1)S(=O)(=O)c1ccccc1C2=O)c1ccco1 (stereo unspecified) ?
class 1

Sourced from PubChem BioAssay
